Item-by-item account of Y0
- test: Recovery over time from exposure to cell culture media without cells (GC-MS/MS)
- Type: physicochemical
- assaySetup: Solvent Extract (DMSO, 15 ng/mL each PAH); one phase decay fit of nominal recovery
readoutName: Y0

>>> observed("c1ccc2c(c1)ccc1ccccc12")
14.6
>>> observed("C1=Cc2cccc3cccc1c23")
14.88
>>> observed("c1cc2c3c(cccc3c1)CC2")
14.88
>>> observed("c1ccc2c(c1)Cc1ccccc1-2")
14.61

* * *

- test: Loading kinetics of silicone micro-O-rings from methanol PAH solution (GC-MS/MS)
- Assay type: physicochemical
readoutName: Span Value

>>> observed("c1ccc(-c2ccccc2)cc1")
0.6997
>>> observed("c1cc2ccc3cccc4ccc(c1)c2c34")
0.4017
>>> observed("c1ccc2c(c1)-c1ccc3ccc4cccc5cc-2c1c3c45 [Indeno[1,2,3-cd]pyrene]")
0.0758
>>> observed("c1ccc2c(c1)ccc1cc3c(ccc4ccccc43)cc12 [Dibenzo[a,h]anthracene]")
0.033
>>> observed("c1cc2ccc3ccc4ccc5cccc6c(c1)c2c3c4c56 [Benzo[g,h,i]perylene]")
0.06193
